molecular target: zfERα (Danio rerio, UniProt P57717); experiment: cyp19a1b-luciferase reporter gene assay in U251-MG glial cells transfected with zfERα; assay type: cell-based, zebrafish; set-up: containing the coding regions of each zebrafish estrogen receptor cDNA; expressed in transfected cells; host or cells: human U251-MG glial cells (ER-negative); conditions: 10–6 M, 24 h, U251-MG cells with ERα, vs DMSO
Sequence (P57717 whole entry): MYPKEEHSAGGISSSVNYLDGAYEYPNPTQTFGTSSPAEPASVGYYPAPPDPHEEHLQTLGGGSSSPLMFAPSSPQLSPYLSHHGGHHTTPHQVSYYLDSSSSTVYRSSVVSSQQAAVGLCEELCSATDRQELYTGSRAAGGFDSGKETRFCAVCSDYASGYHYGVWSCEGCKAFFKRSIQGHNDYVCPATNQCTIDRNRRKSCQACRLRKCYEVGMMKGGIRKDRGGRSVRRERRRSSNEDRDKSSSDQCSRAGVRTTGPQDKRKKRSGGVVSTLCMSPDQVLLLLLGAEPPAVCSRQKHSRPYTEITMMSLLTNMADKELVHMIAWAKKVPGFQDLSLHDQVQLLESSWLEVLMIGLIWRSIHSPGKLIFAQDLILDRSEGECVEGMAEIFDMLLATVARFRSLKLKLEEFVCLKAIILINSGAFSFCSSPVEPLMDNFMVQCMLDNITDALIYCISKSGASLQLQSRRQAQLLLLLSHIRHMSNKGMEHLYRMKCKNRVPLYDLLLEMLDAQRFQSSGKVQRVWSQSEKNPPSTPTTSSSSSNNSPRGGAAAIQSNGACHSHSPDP
measurement kind: cyp19a1b-luciferase reporter gene induction

Oc1ccc(C(c2ccc(O)cc2)(C(F)(F)F)C(F)(F)F)cc1 [BPAF]: significant stimulation
O=S(=O)(c1ccc(O)cc1)c1ccc(O)cc1 [BPS, bis-(4-hydroxyphenyl)sulfone]: did not stimulate
CC(C)(c1ccc(O)cc1)c1ccc(O)cc1 [BPA, 2,2-bis(4-hydroxyphenyl)propane, reference compound]: significant stimulation
CC(c1ccccc1)(c1ccc(O)cc1)c1ccc(O)cc1 [BPAP, 4,4′-(1-phenylethylidene)bisphenol]: did not stimulate
